Numbers sourced from PubChem BioAssay.

# Experimental system: Left-right determination factor 2 (Homo sapiens)
# Measurement description: LEFTY2 binders on small-molecule microarrays, primary screen, biochemical, small-molecule microarray, 635 nm fluorescence scan (AID 1110)
# Setup conditions: LEFTY2 binding, higher = more signal
Quantity: composite z-score

molecule=C=CCNC(=O)[C@H]1[C@@H]2C(=O)O[C@@H](c3ccccc3)[C@@H](c3ccccc3)N2[C@@H](c2ccc(OCCO)cc2)[C@]12C(=O)N(C(=O)OCCOC)c1ccccc12 experimental_system="Left-right determination factor 2 (Homo sapiens)" quantity="composite z-score" observed_result=0.666
molecule=O=C(NCc1ccccc1)[C@@]1(Cc2ccccc2)N=C(c2ccc(OCCCO)cc2)O[C@H]1c1ccccc1 experimental_system="Left-right determination factor 2 (Homo sapiens)" quantity="composite z-score" observed_result=-0.699
molecule="O=C1OCCC/C=C\\[C@H]2OC34C=CCN(Cn5nnc6ccccc65)C(=O)[C@H]3N(CCO)C(=O)[C@@H]4C12 (stereo partly drawn)" experimental_system="Left-right determination factor 2 (Homo sapiens)" quantity="composite z-score" observed_result=-1.84
molecule=C[C@@H]1ON(c2cccc(C(=O)OC(C)(C)C)c2)[C@H](c2ccc(Br)cc2)[C@H]1C(=O)N1C(=O)OC[C@H]1Cc1ccccc1 experimental_system="Left-right determination factor 2 (Homo sapiens)" quantity="composite z-score" observed_result=0.552
molecule=CC(C)OC(=O)C=C1C[C@@H](c2ccccc2C(F)(F)F)O[C@@H](c2ccccc2C(F)(F)F)O1 experimental_system="Left-right determination factor 2 (Homo sapiens)" quantity="composite z-score" observed_result=0.351
molecule=C=CC[C@@]1(C(N)=O)N=C(c2ccc(OCCCO)cc2)O[C@@H]1c1ccccc1CN=[N+]=[N-] experimental_system="Left-right determination factor 2 (Homo sapiens)" quantity="composite z-score" observed_result=-0.294
molecule="CN1C(=O)C2C=CC(C(O)C3CCCCC3)N(Nc3ccc([N+](=O)[O-])cc3[N+](=O)[O-])C2C1=O (stereo not drawn)" experimental_system="Left-right determination factor 2 (Homo sapiens)" quantity="composite z-score" observed_result=0.0511
molecule=CC[C@@H]1C=C(C(=O)O)[C@H](c2ccco2)N1S(=O)(=O)c1ccc(C)cc1 experimental_system="Left-right determination factor 2 (Homo sapiens)" quantity="composite z-score" observed_result=-0.0532
